Test system: H9c2 rat cardiomyoblasts, Nile Red TAG fluorescence, overnight
experiment-summary: inhibitors of triacylglycerol buildup in H9c2 cells, dose response, cell-based, H9c2 rat cardiomyoblasts, Nile Red fluorescence, primary readout (AID 743161)
The source made the active and inactive calls.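 The calls were made as follows: active = compounds whose lipid-stain IC50 is at most a set limit, with nuclear-stain IC50 a set multiple higher; inactive = the rest.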
Entry note: the call must match one of t = active, f = inactive

Q. Hey, what did the test say about CCCCSc1nc2ccc(Nc3nc(N4CCOCC4)nc(N4CCOCC4)n3)cc2s1 ?
A. t

Q. Hey, what did the test say about CCCN1Cc2cccc(C(=O)Nc3cccc(C(C)=O)c3)c2C1=O ?
A. f

Q. Hey, what did the test say about COc1cccc(-c2cc(C(=O)Nc3ccc(N(C)C(C)=O)cc3)c3cc(Br)ccc3n2)c1 ?
A. t

Q. Hey, what did the test say about CCCN1Cc2cccc(C(=O)Nc3ccc(C)cc3)c2C1=O ?
A. f

Q. Hey, what did the test say about O=C(CSc1nc2ccc(Nc3nc(N4CCOCC4)nc(N4CCOCC4)n3)cc2s1)NCc1ccco1 ?
A. t

Q. Hey, what did the test say about O=C(Nc1cccc(-c2nc3ccccc3[nH]2)c1)c1cccc2c1C(=O)N(CC1CC1)C2 ?
A. t

Q. Hey, what did the test say about COCCN1Cc2cccc(C(=O)Nc3cccc(C(=O)Nc4ccccc4)c3)c2C1=O ?
A. t

Q. Hey, what did the test say about Cc1ccc(-c2csc(NC(=O)CSc3nc4ccccc4c(=O)n3CCCN(C)C)n2)cc1 ?
A. f

Q. Hey, what did the test say about Cc1ccccc1NC(=O)CSc1nc2ccc(Nc3nc(N4CCOCC4)nc(N4CCOCC4)n3)cc2s1 ?
A. t

Q. Hey, what did the test say about CCCC(=O)Nc1nc2ccc(NC(=O)c3c(F)c(F)c(OC)c(F)c3F)cc2s1 ?
A. t

Q. Hey, what did the test say about COCCN1Cc2cccc(C(=O)Nc3cccc(C(=O)Nc4ccccc4OC)c3)c2C1=O ?
A. t

Q. Hey, what did the test say about CCOc1ccc(CCNC(=O)CN2CCN(Cc3ccccc3C)C2=O)cc1OCC ?
A. t

Q. Hey, what did the test say about COc1cc(NC(=O)c2cc([N+](=O)[O-])ccc2NC(=O)CN2CCN(c3ccccn3)CC2)cc(OC)c1 ?
A. t

Q. Hey, what did the test say about COCCN1Cc2cccc(C(=O)Nc3cccc(-c4nc5ccc(Cl)cc5[nH]4)c3)c2C1=O ?
A. t

Q. Hey, what did the test say about COc1ccc(CCN2Cc3cccc(C(=O)Nc4cccc(-c5nc6ccccc6[nH]5)c4)c3C2=O)cc1OC ?
A. t

Q. Hey, what did the test say about O=C(CSc1nc2ccc(Nc3nc(N4CCOCC4)nc(N4CCOCC4)n3)cc2s1)Nc1ccccc1Cl ?
A. t

Q. Hey, what did the test say about O=C(Nc1cccc(-c2nc3ccccc3[nH]2)c1)c1cccc2c1C(=O)N(CCOc1ccccc1)C2 ?
A. t

Q. Hey, what did the test say about CC(C)CC(=O)Nc1cccc(-c2nc3ccccc3[nH]2)c1 ?
A. f

Q. Hey, what did the test say about COCCCN1Cc2cccc(C(=O)Nc3cccc(-c4nc5ccccc5[nH]4)c3)c2C1=O ?
A. t

Q. Hey, what did the test say about COCCN1Cc2cccc(C(=O)Nc3cccc(Cl)c3Cl)c2C1=O ?
A. f

Q. Hey, what did the test say about CCC(C)(C)NC(=O)C(c1ccc(C)cc1)N(Cc1ccco1)C(=O)CCC(=O)Nc1nccs1 (centres undefined) ?
A. t

Q. Hey, what did the test say about COCCN1Cc2cccc(C(=O)Nc3ccc(CN4CCOCC4)cc3)c2C1=O ?
A. f

Q. Hey, what did the test say about COCCN1Cc2cccc(C(=O)Nc3ccc(C)cc3)c2C1=O ?
A. f

Q. Hey, what did the test say about CCCN1Cc2cccc(C(=O)Nc3ccc(-c4nc5ccccc5[nH]4)cc3)c2C1=O ?
A. f

Q. Hey, what did the test say about CCOCCN1Cc2cccc(C(=O)Nc3cccc(-c4nc5ccccc5[nH]4)c3)c2C1=O ?
A. t

Q. Hey, what did the test say about Cc1cccc2c(C(=O)N3CCN(c4ccccc4)CC3)cc(-c3ccncc3)nc12 ?
A. t

Q. Hey, what did the test say about O=C(Nc1cccc(-c2nc3ccccc3[nH]2)c1)c1cccc2c1C(=O)N(CCc1ccccc1)C2 ?
A. t

Q. Hey, what did the test say about COCCN1Cc2cccc(C(=O)Nc3cccc(-c4nc5ccc(F)cc5[nH]4)c3)c2C1=O ?
A. t

Q. Hey, what did the test say about Cc1ccc(Nc2nc(OC(C(F)(F)F)C(F)(F)F)nc(N3CCOCC3)n2)cc1 ?
A. t

Q. Hey, what did the test say about COCCN1Cc2cccc(C(=O)Nc3cccnc3)c2C1=O ?
A. f

Q. Hey, what did the test say about Cc1ccccc1OCCNc1cc(N2CC(C)NC(C)C2)ccc1[N+](=O)[O-] (centres undefined) ?
A. t

Q. Hey, what did the test say about CCCCN1Cc2cccc(C(=O)Nc3cccc(-c4nc5ccccc5[nH]4)c3)c2C1=O ?
A. t

Q. Hey, what did the test say about CCOC(=O)c1cc(-c2ccccc2)sc1NC(=O)C(C)N1C(=O)NC(C)(c2ccc(Cl)cc2)C1=O (centres undefined) ?
A. t

Q. Hey, what did the test say about CCOc1ccc(NC(=O)CN(C)C(=O)c2cc(-c3ccc(OC)cc3)nc3ccccc23)cc1OCC ?
A. f

Q. Hey, what did the test say about COCCn1cnc2cccc(C(=O)Nc3cccc(-c4nc5ccccc5[nH]4)c3)c2c1=O ?
A. f

Q. Hey, what did the test say about O=C(Nc1cccc(-c2nc3ccccc3[nH]2)c1)c1cccc2c1C(=O)N(CCN1CCOCC1)C2 ?
A. t

Q. Hey, what did the test say about CCN(CC)S(=O)(=O)c1ccc(N2CCOCC2)c(NC(=O)c2[nH]c(C)c(C(C)=O)c2C)c1 ?
A. t

Q. Hey, what did the test say about COCCN1Cc2cccc(C(=O)Nc3ccc(S(=O)(=O)N4CCOCC4)cc3)c2C1=O ?
A. f

Q. Hey, what did the test say about COCCN1Cc2cccc(C(=O)Nc3cccc(Cl)c3)c2C1=O ?
A. f

* * *

Test system: H9c2 rat cardiomyoblasts, Nile Red TAG fluorescence, overnight
experiment-summary: inhibitors of triacylglycerol buildup in H9c2 cells, dose response, cell-based, H9c2 rat cardiomyoblasts, Nile Red fluorescence, primary readout (AID 743161)
The source made the active and inactive calls.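 The calls were made as follows: active = compounds whose lipid-stain IC50 is at most a set limit, with nuclear-stain IC50 a set multiple higher; inactive = the rest.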
Entry note: the call must match one of yes = active, no = inactive

Q. Hey, what did the test say about COCCN1Cc2cccc(C(=O)Nc3ccc(S(=O)(=O)N4CCCCC4)cc3)c2C1=O ?
A. no

Q. Hey, what did the test say about Cc1ccc(-c2nc(NC(=O)c3cc(C(C)(C)C)nn3C)sc2C)cc1Cl ?
A. yes

Q. Hey, what did the test say about O=C(Nc1cccc2ncccc12)c1ccc(Cl)cc1 ?
A. no

Q. Hey, what did the test say about CCCC(=O)Nc1nc2ccc(NC(=O)c3ccccc3F)cc2s1 ?
A. yes

Q. Hey, what did the test say about CCN(CC)S(=O)(=O)c1ccc(NC(=O)c2cccc3c2C(=O)N(CCOC)C3)cc1 ?
A. no

* * *

Tested on: H9c2 rat cardiomyoblasts, Nile Red TAG fluorescence, overnight
experiment-summary: inhibitors of triacylglycerol buildup in H9c2 cells, dose response, cell-based, H9c2 rat cardiomyoblasts, Nile Red fluorescence, primary readout (AID 743161)
Activity calls are given as the source filed them.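 How the source made its calls: active means compounds whose lipid-stain IC50 is at most a set limit, with nuclear-stain IC50 a set multiple higher; inactive means the rest.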
measured-metric: IC50

The reported value for Cc1cc(C)c2nc(-c3ccncc3)cc(C(=O)N3CCN(Cc4ccccc4Cl)CC3)c2c1 in terms of IC50 is 5.05 µM

The reported value for CCn1c(SCC(=O)Nc2nc(-c3ccc(C)cc3)cs2)nnc1-c1ccccc1O in terms of IC50 is 7.87 µM

The reported value for CCOC(=O)c1cccc(NC(=O)c2cccc3c2C(=O)N(CCOC)C3)c1 in terms of IC50 is > 50 µM (inactive)

* * *

Test system: H9c2 rat cardiomyoblasts, Nile Red TAG fluorescence, overnight
experiment-summary: inhibitors of triacylglycerol buildup in H9c2 cells, dose response, cell-based, H9c2 rat cardiomyoblasts, Nile Red fluorescence, primary readout (AID 743161)
Active and inactive are the calls of the source.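 How the source made its calls: active means compounds whose lipid-stain IC50 is at most a set limit, with nuclear-stain IC50 a set multiple higher; inactive means the rest.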
Entry note: the call must match one of active, inactive

Q. Hey, what did the test say about COCCN1Cc2cccc(C(=O)Nc3cccc(-c4nc5ccc(C(F)(F)F)cc5[nH]4)c3)c2C1=O ?
A. active

Q. Hey, what did the test say about CCOc1ccccc1NC(=O)c1cccc(NC(=O)c2ccco2)c1 ?
A. active

Q. Hey, what did the test say about O=[N+]([O-])c1ccc(Nc2nc(NC3CCCCC3)nc(N3CCCC3)n2)cc1 ?
A. active

Q. Hey, what did the test say about Cc1ccccc1NC(=O)CSc1nc(Nc2ccccc2)nc(N2CCOCC2)n1 ?
A. inactive

Q. Hey, what did the test say about CCC(C)(C)NC(=O)C(c1ccc(OC)cc1)N(Cc1cccs1)C(=O)CCC(=O)Nc1cc(C)on1 (stereo unspecified) ?
A. active

Q. Hey, what did the test say about O=C(Nc1cccc(-c2nc3ccccc3[nH]2)c1)c1ccncc1 ?
A. inactive

Q. Hey, what did the test say about CSCCCN1Cc2cccc(C(=O)Nc3cccc(-c4nc5ccccc5[nH]4)c3)c2C1=O ?
A. active

Q. Hey, what did the test say about COCCN1Cc2cccc(C(=O)Nc3nc4ccccc4[nH]3)c2C1=O ?
A. inactive

Q. Hey, what did the test say about O=C(Nc1cccc(-c2nc3ccccc3[nH]2)c1)C1CCCC1 ?
A. inactive

Q. Hey, what did the test say about COCCN1Cc2cccc(C(=O)Nc3cccc(C(C)=O)c3)c2C1=O ?
A. inactive

Q. Hey, what did the test say about O=C(Nc1cccc(-c2nc3ccccc3[nH]2)c1)c1ccccc1 ?
A. inactive

Q. Hey, what did the test say about COc1ccc(-c2csc(NC(=O)c3ccc(OCC(=O)N4CCOCC4)c(OC)c3)n2)cc1 ?
A. active

Q. Hey, what did the test say about COCCN1Cc2cccc(C(=O)Nc3ccc(-c4nc5ccccc5[nH]4)cc3)c2C1=O ?
A. active

Q. Hey, what did the test say about COc1cc2c(cc1OC)C(C)N(C(=O)c1cc3c(C)cc(C)cc3[nH]1)CC2 (stereo unspecified) ?
A. inactive

Q. Hey, what did the test say about COCCN1Cc2cccc(C(=O)Nc3nc4ccccc4n3C)c2C1=O ?
A. inactive

Q. Hey, what did the test say about COc1ccccc1CCN1Cc2cccc(C(=O)Nc3cccc(-c4nc5ccccc5[nH]4)c3)c2C1=O ?
A. active

Q. Hey, what did the test say about COCCN1Cc2cccc(C(=O)Nc3cccc(-c4nc5ccc(C)cc5[nH]4)c3)c2C1=O ?
A. active

Q. Hey, what did the test say about CN(C)CCCn1c(SCC(=O)Nc2nc(-c3cccc(Br)c3)cs2)nc2ccccc2c1=O ?
A. inactive

Q. Hey, what did the test say about O=C1COc2ccc(C(=O)CSc3nc4ccccc4c(=O)n3-c3ccc(Cl)c(Cl)c3)cc2N1 ?
A. active

Q. Hey, what did the test say about CC(=O)Nc1cccc(-c2nc3ccccc3[nH]2)c1 ?
A. inactive

Q. Hey, what did the test say about O=C(CCC(=O)N1CCOc2ccc(Cl)cc21)NCCCN1CCC(Cc2ccccc2)CC1 ?
A. active
